Tested on: CT DNA
TEST_METHOD_NOTES: Study of the DNA-interaction by cyclic voltammetry
Format: binding, calf
COND: eq. S6
READOUT: Kr/Kox, ratio of equilibrium DNA-binding constants (reduced/oxidized form)

>>> val("CN1CCN(c2c(F)cc3c(=O)c(C(=O)[O-])cn(CCF)c3c2F)CC1.CN1CCN(c2c(F)cc3c(=O)c(C(=O)[O-])cn(CCF)c3c2F)CC1.[Co+2].c1cnc2c(c1)ccc1cccnc12 [complex 17, [Co(flrx)2(phen)]]")
1.10

# context switch: different compound, same Kr/Kox, ratio of equilibrium DNA-binding constants (reduced/oxidized form)
Ask: Identify the measured Kr/Kox, ratio of equilibrium DNA-binding constants (reduced/oxidized form) of CN1CCN(c2c(F)cc3c(=O)c(C(=O)[O-])cn(CCF)c3c2F)CC1.CN1CCN(c2c(F)cc3c(=O)c(C(=O)[O-])cn(CCF)c3c2F)CC1.[Mn+2].c1ccc(Nc2ccccn2)nc1 [complex 10, [Mn(flrx)2(bipyam)]] for CT DNA.
Reply: 0.98

----------
TARGET_DESC: bovine serum albumin (BSA) (Bos taurus, UniProt P02769)
Construct: purchased
Sequence (P02769 25-607): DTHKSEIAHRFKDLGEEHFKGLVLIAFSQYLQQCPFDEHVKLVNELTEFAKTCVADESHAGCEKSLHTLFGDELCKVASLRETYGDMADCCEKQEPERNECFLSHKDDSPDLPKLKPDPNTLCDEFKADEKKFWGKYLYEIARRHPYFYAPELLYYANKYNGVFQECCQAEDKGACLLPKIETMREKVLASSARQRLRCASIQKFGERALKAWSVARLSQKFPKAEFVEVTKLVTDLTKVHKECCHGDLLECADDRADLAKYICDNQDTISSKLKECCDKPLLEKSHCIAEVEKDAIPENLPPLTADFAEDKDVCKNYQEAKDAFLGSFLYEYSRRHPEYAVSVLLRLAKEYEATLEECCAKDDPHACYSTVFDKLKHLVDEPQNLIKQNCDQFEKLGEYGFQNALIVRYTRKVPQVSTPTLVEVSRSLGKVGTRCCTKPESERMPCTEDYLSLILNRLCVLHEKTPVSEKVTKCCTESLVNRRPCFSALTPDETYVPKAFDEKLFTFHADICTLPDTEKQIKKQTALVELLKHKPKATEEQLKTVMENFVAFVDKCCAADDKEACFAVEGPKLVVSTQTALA
TEST_METHOD_NOTES: Albumin binding by tryptophan fluorescence emission quenching
COND: BSA 3 μM, buffer pH 7.0, λexc 295 nm, Stern–Volmer, τ0 = 10^–8 s
READOUT: kq(BSA), BSA-quenching constant

Check out these entries, answers already filled in.
>>> val("CN1CCN(c2c(F)cc3c(=O)c(C(=O)[O-])cn(CCF)c3c2F)CC1.CN1CCN(c2c(F)cc3c(=O)c(C(=O)[O-])cn(CCF)c3c2F)CC1.CO.CO.[Zn+2] [complex 3, [Zn(flrx)2(MeOH)2]]")
"4.55(±0.21) × 10^13 M^−1s^−1"
>>> val("CN1CCN(c2c(F)cc3c(=O)c(C(=O)[O-])cn(CCF)c3c2F)CC1.CN1CCN(c2c(F)cc3c(=O)c(C(=O)[O-])cn(CCF)c3c2F)CC1.[Cu+2] [complex 1, [Cu(flrx)2]]")
"1.87(±0.09) × 10^13 M^−1s^−1"
>>> val("CN1CCN(c2c(F)cc3c(=O)c(C(=O)[O-])cn(CCF)c3c2F)CC1.[Cl-].[Cu+2].c1cnc2c(c1)ccc1cccnc12 [complex 8, [Cu(flrx)(phen)Cl]]")
"1.04(±0.03) × 10^13 M^−1s^−1"

Ask: Bench note: what kq(BSA), BSA-quenching constant did CN1CCN(c2c(F)cc3c(=O)c(C(=O)[O-])cn(CCF)c3c2F)CC1.CN1CCN(c2c(F)cc3c(=O)c(C(=O)[O-])cn(CCF)c3c2F)CC1.[Zn+2].c1cnc2c(c1)ccc1cccnc12 [complex 14, [Zn(flrx)2(phen)]] show?
Reply: 1.61(±0.07) × 10^13 M^−1s^−1

Ask: Bench note: what kq(BSA), BSA-quenching constant did CN1CCN(c2c(F)cc3c(=O)c(C(=O)[O-])cn(CCF)c3c2F)CC1.CN1CCN(c2c(F)cc3c(=O)c(C(=O)[O-])cn(CCF)c3c2F)CC1.[Mn+2].c1ccc(Nc2ccccn2)nc1 [complex 10, [Mn(flrx)2(bipyam)]] show?
Reply: 1.20(±0.04) × 10^13 M^−1s^−1

Ask: Bench note: what kq(BSA), BSA-quenching constant did CN1CCN(c2c(F)cc3c(=O)c(C(=O)[O-])cn(CCF)c3c2F)CC1.CN1CCN(c2c(F)cc3c(=O)c(C(=O)[O-])cn(CCF)c3c2F)CC1.[Ni+2].c1ccc(Nc2ccccn2)nc1 [complex 18, [Ni(flrx)2(bipyam)]] show?
Reply: 1.56(±0.07) × 10^13 M^−1s^−1

----------
TARGET_DESC: bovine serum albumin (BSA) (Bos taurus, UniProt P02769)
Construct: purchased
TEST_METHOD_NOTES: Albumin binding by tryptophan fluorescence emission quenching
COND: BSA 3 μM, buffer pH 7.0, λexc 295 nm, Stern–Volmer, τ0 = 10^–8 s
READOUT: kq(BSA), BSA-quenching constant

Check out these entries, answers already filled in.
>>> val("CN1CCN(c2c(F)cc3c(=O)c(C(=O)[O-])cn(CCF)c3c2F)CC1.[Cl-].[Cu+2].c1ccc(Nc2ccccn2)nc1 [complex 7, [Cu(flrx)(bipyam)Cl]]")
"1.56(±0.04) × 10^13 M^−1s^−1"
>>> val("CN1CCN(c2c(F)cc3c(=O)c(C(=O)[O-])cn(CCF)c3c2F)CC1.CN1CCN(c2c(F)cc3c(=O)c(C(=O)[O-])cn(CCF)c3c2F)CC1.[Mn+2].c1ccc(-c2ccccn2)nc1 [complex 9, [Mn(flrx)2(bipy)]]")
"2.45(±0.09) × 10^13 M^−1s^−1"
>>> val("CN1CCN(c2c(F)cc3c(=O)c(C(=O)[O-])cn(CCF)c3c2F)CC1.[Cl-].[Cu+2].c1ccc(-c2ccccn2)nc1 [complex 6, [Cu(flrx)(bipy)Cl]]")
"1.59(±0.07) × 10^13 M^−1s^−1"
>>> val("CN1CCN(c2c(F)cc3c(=O)c(C(=O)[O-])cn(CCF)c3c2F)CC1.CN1CCN(c2c(F)cc3c(=O)c(C(=O)[O-])cn(CCF)c3c2F)CC1.O.O.[Mn+2] [complex 2, [Mn(flrx)2(H2O)2]]")
"3.45(±0.16) × 10^13 M^−1s^−1"

# context switch: different compound, same kq(BSA), BSA-quenching constant
Ask: Bench note: what kq(BSA), BSA-quenching constant did CN1CCN(c2c(F)cc3c(=O)c(C(=O)[O-])cn(CCF)c3c2F)CC1.CN1CCN(c2c(F)cc3c(=O)c(C(=O)[O-])cn(CCF)c3c2F)CC1.[Zn+2].c1ccc(Nc2ccccn2)nc1 [complex 13, [Zn(flrx)2(bipyam)]] show?
Reply: 3.37(±0.14) × 10^13 M^−1s^−1

----------
TARGET_DESC: human serum albumin (HSA) (Homo sapiens)
Construct: purchased
Sequence (P02768 25-609): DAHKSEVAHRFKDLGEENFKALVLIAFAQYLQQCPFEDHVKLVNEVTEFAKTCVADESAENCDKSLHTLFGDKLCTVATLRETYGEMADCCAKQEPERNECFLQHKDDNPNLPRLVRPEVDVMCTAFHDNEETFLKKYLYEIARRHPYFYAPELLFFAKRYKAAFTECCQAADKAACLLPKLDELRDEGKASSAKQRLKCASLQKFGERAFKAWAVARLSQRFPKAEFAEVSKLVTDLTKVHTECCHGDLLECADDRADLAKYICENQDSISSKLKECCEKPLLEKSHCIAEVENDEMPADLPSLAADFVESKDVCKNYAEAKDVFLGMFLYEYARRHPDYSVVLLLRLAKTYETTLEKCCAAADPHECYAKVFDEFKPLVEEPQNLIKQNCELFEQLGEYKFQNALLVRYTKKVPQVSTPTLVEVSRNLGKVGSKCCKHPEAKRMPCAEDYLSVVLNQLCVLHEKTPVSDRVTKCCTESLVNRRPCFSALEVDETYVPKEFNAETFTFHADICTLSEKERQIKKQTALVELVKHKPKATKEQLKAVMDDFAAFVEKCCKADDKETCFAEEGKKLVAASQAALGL
TEST_METHOD_NOTES: Albumin binding by tryptophan fluorescence emission quenching
COND: HSA 3 μM, buffer pH 7.0, λexc 295 nm, Stern–Volmer, τ0 = 10^–8 s
Method: Serum albumins (Sas) are the most abundant serum proteins and play a role in the circulatory system, primarily in the transport of drugs and other bioactive small molecules through the bloodstream. The SA-quenching constants (kq) for the compounds (Table 5) were calculated with the Stern–Volmer quenching equation (Equations (S2) and (S3)). Albumin-binding constants (K) were calculated using the Scatchard equation (Equation (S4)). […] S2. Interaction with serum albumins […]
READOUT: kq(HSA), HSA-quenching constant

Check out these entries, answers already filled in.
>>> val("CN1CCN(c2c(F)cc3c(=O)c(C(=O)[O-])cn(CCF)c3c2F)CC1.CN1CCN(c2c(F)cc3c(=O)c(C(=O)[O-])cn(CCF)c3c2F)CC1.[Co+2].c1ccc(Nc2ccccn2)nc1 [complex 16, [Co(flrx)2(bipyam)]]")
"9.35(±0.22) × 10^12 M^−1s^−1"
>>> val("CN1CCN(c2c(F)cc3c(=O)c(C(=O)O)cn(CCF)c3c2F)CC1 [Fleroxacin]")
"2.69(±0.11) × 10^12 M^−1s^−1"
>>> val("CN1CCN(c2c(F)cc3c(=O)c(C(=O)[O-])cn(CCF)c3c2F)CC1.CN1CCN(c2c(F)cc3c(=O)c(C(=O)[O-])cn(CCF)c3c2F)CC1.[Co+2].c1ccc(-c2ccccn2)nc1 [complex 15, [Co(flrx)2(bipy)]]")
"1.56(±0.05) × 10^13 M^−1s^−1"
>>> val("CN1CCN(c2c(F)cc3c(=O)c(C(=O)[O-])cn(CCF)c3c2F)CC1.CN1CCN(c2c(F)cc3c(=O)c(C(=O)[O-])cn(CCF)c3c2F)CC1.[Zn+2].c1ccc(-c2ccccn2)nc1 [complex 12, [Zn(flrx)2(bipy)]]")
"1.24(±0.04) × 10^13 M^−1s^−1"

# context switch: different molecule, same kq(HSA), HSA-quenching constant
Ask: Bench note: what kq(HSA), HSA-quenching constant did CN1CCN(c2c(F)cc3c(=O)c(C(=O)[O-])cn(CCF)c3c2F)CC1.CN1CCN(c2c(F)cc3c(=O)c(C(=O)[O-])cn(CCF)c3c2F)CC1.[Zn+2].c1cnc2c(c1)ccc1cccnc12 [complex 14, [Zn(flrx)2(phen)]] show?
Reply: 1.10(±0.04) × 10^13 M^−1s^−1

----------
Entries and their MIC (values in parentheses) values follow.
System: Xanthomonas campestris ATCC 1395
TEST_METHOD_NOTES: Antimicrobial activity, MIC determination
Type: cell-based
COND: X. campestris; 24-h incubation, 28°C
Protocol: The in vitro antimicrobial activity of the compounds was evaluated by determining the minimum inhibitory concentration (MIC) against the Gram-positive microorganisms Staphylococcus aureus ATCC 6538 (S. aureus) and Bacillus subtilis ATCC 6633 (B. subtilis) and the Gram-negative microorganism Xanthomonas campestris ATCC 1395 (X. campestris). […]
Give the value, in units of µM, as a plain number.

>>> val("CN1CCN(c2c(F)cc3c(=O)c(C(=O)[O-])cn(CCF)c3c2F)CC1.CN1CCN(c2c(F)cc3c(=O)c(C(=O)[O-])cn(CCF)c3c2F)CC1.[Ni+2].c1cnc2c(c1)ccc1cccnc12 [complex 19, [Ni(flrx)2(phen)]]")
16.4
>>> val("CN1CCN(c2c(F)cc3c(=O)c(C(=O)[O-])cn(CCF)c3c2F)CC1.CN1CCN(c2c(F)cc3c(=O)c(C(=O)[O-])cn(CCF)c3c2F)CC1.[Co+2].c1ccc(Nc2ccccn2)nc1 [complex 16, [Co(flrx)2(bipyam)]]")
16.5
>>> val("CN1CCN(c2c(F)cc3c(=O)c(C(=O)[O-])cn(CCF)c3c2F)CC1.CN1CCN(c2c(F)cc3c(=O)c(C(=O)[O-])cn(CCF)c3c2F)CC1.[Ni+2].c1ccc(Nc2ccccn2)nc1 [complex 18, [Ni(flrx)2(bipyam)]]")
33.0
>>> val("CN1CCN(c2c(F)cc3c(=O)c(C(=O)[O-])cn(CCF)c3c2F)CC1.CN1CCN(c2c(F)cc3c(=O)c(C(=O)[O-])cn(CCF)c3c2F)CC1.[Mn+2].c1ccc(-c2ccccn2)nc1 [complex 9, [Mn(flrx)2(bipy)]]")
16.9
>>> val("CN1CCN(c2c(F)cc3c(=O)c(C(=O)[O-])cn(CCF)c3c2F)CC1.CN1CCN(c2c(F)cc3c(=O)c(C(=O)[O-])cn(CCF)c3c2F)CC1.CO.CO.[Zn+2] [complex 3, [Zn(flrx)2(MeOH)2]]")
36.8
>>> val("CN1CCN(c2c(F)cc3c(=O)c(C(=O)[O-])cn(CCF)c3c2F)CC1.CN1CCN(c2c(F)cc3c(=O)c(C(=O)[O-])cn(CCF)c3c2F)CC1.[Zn+2].c1ccc(-c2ccccn2)nc1 [complex 12, [Zn(flrx)2(bipy)]]")
16.7
>>> val("CN1CCN(c2c(F)cc3c(=O)c(C(=O)[O-])cn(CCF)c3c2F)CC1.CN1CCN(c2c(F)cc3c(=O)c(C(=O)[O-])cn(CCF)c3c2F)CC1.[Co+2].c1cnc2c(c1)ccc1cccnc12 [complex 17, [Co(flrx)2(phen)]]")
16.0
>>> val("CN1CCN(c2c(F)cc3c(=O)c(C(=O)[O-])cn(CCF)c3c2F)CC1.CN1CCN(c2c(F)cc3c(=O)c(C(=O)[O-])cn(CCF)c3c2F)CC1.[Mn+2].c1cnc2c(c1)ccc1cccnc12 [complex 11, [Mn(flrx)2(phen)]]")
16.4

Ask: Bench note: what MIC (values in parentheses) did CN1CCN(c2c(F)cc3c(=O)c(C(=O)[O-])cn(CCF)c3c2F)CC1.[Cl-].[Cu+2].c1cnc2c(c1)ccc1cccnc12 [complex 8, [Cu(flrx)(phen)Cl]] show?
Reply: 12.3

Ask: Bench note: what MIC (values in parentheses) did CN1CCN(c2c(F)cc3c(=O)c(C(=O)[O-])cn(CCF)c3c2F)CC1.CN1CCN(c2c(F)cc3c(=O)c(C(=O)[O-])cn(CCF)c3c2F)CC1.CO.CO.[Co+2] [complex 4, [Co(flrx)2(MeOH)2]] show?
Reply: 18.6

Ask: Bench note: what MIC (values in parentheses) did CN1CCN(c2c(F)cc3c(=O)c(C(=O)[O-])cn(CCF)c3c2F)CC1.CN1CCN(c2c(F)cc3c(=O)c(C(=O)[O-])cn(CCF)c3c2F)CC1.CO.CO.[Ni+2] [complex 5, [Ni(flrx)2(MeOH)2]] show?
Reply: 18.6

Ask: Bench note: what MIC (values in parentheses) did CN1CCN(c2c(F)cc3c(=O)c(C(=O)[O-])cn(CCF)c3c2F)CC1.CN1CCN(c2c(F)cc3c(=O)c(C(=O)[O-])cn(CCF)c3c2F)CC1.[Cu+2] [complex 1, [Cu(flrx)2]] show?
Reply: 10.0

Ask: Bench note: what MIC (values in parentheses) did CN1CCN(c2c(F)cc3c(=O)c(C(=O)[O-])cn(CCF)c3c2F)CC1.CN1CCN(c2c(F)cc3c(=O)c(C(=O)[O-])cn(CCF)c3c2F)CC1.[Zn+2].c1ccc(Nc2ccccn2)nc1 [complex 13, [Zn(flrx)2(bipyam)]] show?
Reply: 16.4

Ask: Bench note: what MIC (values in parentheses) did CN1CCN(c2c(F)cc3c(=O)c(C(=O)[O-])cn(CCF)c3c2F)CC1.CN1CCN(c2c(F)cc3c(=O)c(C(=O)[O-])cn(CCF)c3c2F)CC1.[Co+2].c1ccc(-c2ccccn2)nc1 [complex 15, [Co(flrx)2(bipy)]] show?
Reply: 16.8

Ask: Bench note: what MIC (values in parentheses) did CN1CCN(c2c(F)cc3c(=O)c(C(=O)[O-])cn(CCF)c3c2F)CC1.[Cl-].[Cu+2].c1ccc(-c2ccccn2)nc1 [complex 6, [Cu(flrx)(bipy)Cl]] show?
Reply: 12.8

Ask: Bench note: what MIC (values in parentheses) did CN1CCN(c2c(F)cc3c(=O)c(C(=O)[O-])cn(CCF)c3c2F)CC1.CN1CCN(c2c(F)cc3c(=O)c(C(=O)[O-])cn(CCF)c3c2F)CC1.[Zn+2].c1cnc2c(c1)ccc1cccnc12 [complex 14, [Zn(flrx)2(phen)]] show?
Reply: 16.3

Ask: Bench note: what MIC (values in parentheses) did CN1CCN(c2c(F)cc3c(=O)c(C(=O)[O-])cn(CCF)c3c2F)CC1.CN1CCN(c2c(F)cc3c(=O)c(C(=O)[O-])cn(CCF)c3c2F)CC1.O.O.[Mn+2] [complex 2, [Mn(flrx)2(H2O)2]] show?
Reply: 18.7

Provenance of the data: paper PMC9144902
